target: human P2X2/3 (heteromeric P2X2/3 channels) (Homo sapiens, UniProt P56373+Q9UBL9); construct: expressed in transfected cells; host or cells: 1321N1 human astrocytoma cells (1321N1-hP2X2/3); experiment: FlexStation calcium fluorescence assay, heteromeric P2X2/3 channels in 1321N1 cells; format: cell-based; conditions: 1321N1 cells, hP2X2/3; agonist 3 μM ATP; highest concentration tested is 10 μM; read-out: Average pIC50 P2X2/3 (converted)
Sequence (P56373 whole entry): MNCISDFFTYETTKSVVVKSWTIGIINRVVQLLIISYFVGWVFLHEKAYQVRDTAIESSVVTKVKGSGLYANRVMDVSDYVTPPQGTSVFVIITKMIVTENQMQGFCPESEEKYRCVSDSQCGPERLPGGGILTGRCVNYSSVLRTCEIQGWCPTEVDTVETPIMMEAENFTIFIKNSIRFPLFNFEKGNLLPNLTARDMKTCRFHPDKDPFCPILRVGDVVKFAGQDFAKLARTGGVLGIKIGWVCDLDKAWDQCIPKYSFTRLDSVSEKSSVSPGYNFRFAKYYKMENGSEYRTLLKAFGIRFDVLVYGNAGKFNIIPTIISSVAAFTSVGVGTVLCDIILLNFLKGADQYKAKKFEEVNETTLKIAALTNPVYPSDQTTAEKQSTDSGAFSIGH
Sequence (Q9UBL9 whole entry): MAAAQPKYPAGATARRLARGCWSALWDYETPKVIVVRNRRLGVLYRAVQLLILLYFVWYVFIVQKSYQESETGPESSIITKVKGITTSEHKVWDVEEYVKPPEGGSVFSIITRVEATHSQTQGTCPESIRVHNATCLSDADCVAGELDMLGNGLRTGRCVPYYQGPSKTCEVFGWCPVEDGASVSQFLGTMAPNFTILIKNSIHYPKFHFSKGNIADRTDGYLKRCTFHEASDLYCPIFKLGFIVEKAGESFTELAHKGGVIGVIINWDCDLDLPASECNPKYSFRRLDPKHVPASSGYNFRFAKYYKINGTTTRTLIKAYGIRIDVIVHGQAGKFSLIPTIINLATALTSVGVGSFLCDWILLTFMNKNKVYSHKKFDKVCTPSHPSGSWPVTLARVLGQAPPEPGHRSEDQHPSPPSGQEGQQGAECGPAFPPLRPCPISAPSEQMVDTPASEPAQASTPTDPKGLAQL

line notation	operator	IC50 (µM)
CCNc1ncc(Oc2cc(OC)c(OC)cc2C(C)C)c(N)n1	=	3.16
COc1cc(Oc2cnc(N)nc2NC2CC2)c(C(C)C)cc1OC	=	1.26
C#Cc1cc(Oc2cnc(N)nc2N)c(C(C)C)nc1OC	=	0.2
COCCNc1nc(N)ncc1Oc1cc(OC)c(OC)cc1C(C)C	>	10
COc1cc(Oc2cnc(N)nc2NC2CCN(C)CC2)c(C(C)C)cc1OC	=	6.31
COc1cc(Oc2cnc(N)nc2NCCO)c(C(C)C)cc1OC	>	10
COc1cc(Oc2cnc(N)nc2NCC(C)C)c(C(C)C)cc1OC	>	10
COc1cc(Oc2cnc(N)nc2Nc2cnccn2)c(C(C)C)cc1OC	>	10
COc1cc(Oc2cnc(N)nc2Nc2cccnn2)c(C(C)C)cc1OC	>	10
COc1cc(Oc2cnc(N)nc2Nc2ccccn2)c(C(C)C)cc1OC	>	10
COc1cc(C(C)C)c(Sc2cnc(N)nc2N)cc1S(N)(=O)=O	>	10
COc1cc(Oc2cnc(NC(CCO)CCO)nc2N)c(C(C)C)cc1OC	=	0.398
COc1nc(C(C)C)c(Oc2cnc(N)nc2N)cc1C(F)(F)F	=	1.58
COc1cc(Oc2cnc(N)nc2NC(C)C)c(C(C)C)cc1OC	>	10
CNc1nc(N)ncc1Oc1cc(OC)c(OC)cc1C(C)C	>	10
COc1nc(C(C)C)c(Oc2cnc(N)nc2N)cc1S(C)(=O)=O	>	10
COc1cc(Oc2cnc(N)nc2N)c(C(C)C)nc1OC	=	0.2
COc1nc(C(C)C)c(Oc2cnc(N)nc2N)cc1S(N)(=O)=O	=	0.398
COc1nc(C(C)C)c(Oc2cnc(N)nc2N)cc1C#N	>	10
COc1cc(C(C)C)c(Sc2cnc(N)nc2N)cc1I	=	6.31

These data points were gathered from patent US10822311B2.
